Below, each of the compounds is paired with its reported growth value.
Tested on: UO-31 renal
Assay: NCI-60 one-dose screen, 48 h (100 = growth as untreated, 0 = no growth, -100 = all killed)
Conditions: 10 µM unless noted
This is part of a sample that, as a whole, favours compounds with a hit. Of some 83,000 tested, about 20% had one in any assay.
Your answer is read as %, so omit the unit and give the number.

// solved cases for growth follow
- CCOC(=O)c1c(C)nc2c(c1N)CC(=O)N2CCc1ccccc1: 36.6
- COc1ccc2nc(-c3ccc(OC)c(OC)c3)cc(-c3nnc(SCC(=O)Nc4ccc(/C(C)=N\O)cc4)n3-c3ccccc3)c2c1: 54.2
- COC1=CC2C=C(C3N(c4ccccc4)NC(=O)[C@@H]4CCCN34)C(=O)NC2C=C1 (stereo not given in full): 86.9
- Sc1cccc2cccnc12: 25.6

// below: growth requested for another compound
# input Name the value of growth reported for `Cc1cccc(C)c1Nc1nnc(-c2ccc(F)cc2)o1` when tested on UO-31 renal.
# output 88.8

###

Test system: SR leukemia
Experiment: NCI-60 one-dose screen, 48 h (100 = growth as untreated, 0 = no growth, -100 = all killed)
Settings: 10 µM unless noted
This is part of a sample that, as a whole, favours compounds with a hit. Of some 83,000 tested, about 20% had one in any assay.
One threshold, 40%, splits the recorded growth values: lower ones are Y, equal or higher ones are N.

Study these solved cases before continuing.
- O=[N+]([O-])c1ccc(Oc2ccc(-c3ccccc3)cc2)cc1: N
- CC1=C/C(=N\N=C2/C=C(C)CC(C)(C)C2)CC(C)(C)C1: N
- O=C(CCCCCCCCC(=O)Nc1cccc(C2=NCCN2)c1)Nc1cccc(C2=NCCN2)c1: N
- FC(F)(F)c1ccc2c(Nc3cccc(C4CC(c5ccccc5)=NN4c4ccc(Cl)cc4)c3)ccnc2c1 (stereo unspecified): Y

# input Report whether reported growth is lower than 40% (strictly) for `O=S(=O)(Nc1nccs1)c1ccc(Nc2nc(-c3ccncc3)cs2)cc1`
# output N

# input Report whether reported growth is lower than 40% (strictly) for `CC1CCN(CCCCCOc2ccc3oc4cc(Cl)ccc4c(=O)c3c2)CC1`
# output Y

# input Report whether reported growth is lower than 40% (strictly) for `COc1ccc(/C=C/C(=O)C(CC2CCC2)C(=O)/C=C/c2ccc(OC)c(OC)c2)cc1OC`
# output Y

# input Report whether reported growth is lower than 40% (strictly) for `Cc1cccc(C)c1NCc1nnc(-c2ccc(O)cc2)o1`
# output N

# input Report whether reported growth is lower than 40% (strictly) for `COc1cc(NC(=O)Nc2cnc(Nc3ccc(N4CCOCC4)cc3)nc2Oc2ccc(C(F)(F)F)cc2)cc(OC)c1`
# output N

# input Report whether reported growth is lower than 40% (strictly) for `COc1ccc2c(c1)OC13Oc4cc(OC)ccc4C=C1CCCCC3=C2`
# output N

# input Report whether reported growth is lower than 40% (strictly) for `COc1ccc(NC(=O)c2ccc(Nc3ncnc4[nH]c(C)c(C)c34)cc2)cc1`
# output N

# input Report whether reported growth is lower than 40% (strictly) for `CC(=O)c1cnc(-c2ccccc2)nc1CBr`
# output Y

# input Report whether reported growth is lower than 40% (strictly) for Cc1ccc(C2CC(c3ccc(Nc4nc(NCCO)nc(NCCO)n4)cc3)=NN2c2ccc(Cl)cc2)cc1 (stereo unspecified)
# output Y

# input Report whether reported growth is lower than 40% (strictly) for `COc1ccc(C(=O)c2cc(OC)c(OC)c(OC)c2)cc1OC(=O)CCl`
# output Y

# input Report whether reported growth is lower than 40% (strictly) for `Cc1c(O)c(=O)ccn1-c1nc2ccccc2s1`
# output N

# input Report whether reported growth is lower than 40% (strictly) for COc1ccc(C(C)c2cc(OC)c(OC)c(OC)c2)cc1 (stereo unspecified)
# output Y

# input Report whether reported growth is lower than 40% (strictly) for `Nc1n[nH]c2cccc(C#Cc3cccc(NC(=O)c4cc(N5CCOCC5)cc(C(F)(F)F)c4)c3)c12`
# output N

# input Report whether reported growth is lower than 40% (strictly) for `C#CCOC(=O)[C@]1(C)CCC[C@]2(C)[C@H]3C[C@H]4C(C(C)C)=C[C@]3(CC[C@H]21)[C@@H]1C(=O)CCC(=O)[C@@H]14`
# output N

# input Report whether reported growth is lower than 40% (strictly) for `C=C(C)[C@@H]1CC[C@]2(C(N)=O)CC[C@]3(C)[C@H](CC[C@@H]4[C@@]5(C)CCCNC(C)(C)[C@@H]5CC[C@]43C)[C@@H]12`
# output Y

# input Report whether reported growth is lower than 40% (strictly) for `COc1ccc2c(c1)/C(=C1\S/C(=N/c3nnc(C)s3)NC1=O)C(=O)N2Cc1ccc(Cl)cc1`
# output N

# input Report whether reported growth is lower than 40% (strictly) for `C=C1C(=O)O[C@H]2[C@H]1CC/C(COC(=O)CCCCCCCC(=O)OC/C1=C/CC[C@@]3(C)O[C@H]3[C@H]3OC(=O)C(=C)[C@@H]3CC1)=C\CC[C@@]1(C)O[C@@H]21`
# output Y

# input Report whether reported growth is lower than 40% (strictly) for `CCOC(=O)c1ccc(Nc2ncnc3ccc(NC(=O)c4ccccc4)cc23)cc1`
# output N

# input Report whether reported growth is lower than 40% (strictly) for `COc1cc(N=Nc2cc(S(=O)(=O)O)cc3cc(S(=O)(=O)O)cc(O)c23)c(C)cc1N=Nc1c(S(=O)(=O)O)cc2cc(Nc3ccccc3)ccc2c1O`
# output N

# input Report whether reported growth is lower than 40% (strictly) for `C[C@H]1[C@H](C)CC[C@]2(C(=O)OCCCC[P+](c3ccccc3)(c3ccccc3)c3ccccc3)CC[C@]3(C)C(=CC[C@@H]4[C@@]5(C)CC[C@H](OC(=O)C(Cl)Cl)C(C)(C)[C@@H]5CC[C@]43C)[C@H]12`
# output Y

# input Report whether reported growth is lower than 40% (strictly) for `Cc1c(Br)cccc1NC(=O)c1sc2nc3c(cc2c1N)CN(Cc1ccccc1)CC3`
# output Y

# input Report whether reported growth is lower than 40% (strictly) for `COC(=O)c1ccc2c(c1)NC(=O)[C@@H]1CCCN21`
# output N

###

Tested on: OVCAR-8 ovarian
Assay: NCI-60 one-dose screen, 48 h (100 = growth as untreated, 0 = no growth, -100 = all killed)
Conditions: 10 µM unless noted
About 83,000 compounds went through this panel and 20% of them were active in at least one assay; those are over-represented in the sample as a whole.
Tick yes (1) if growth is 80% or greater. Tick no (0) if growth is less than 80%.

- OCCNc1nc(NCCO)nc(Nc2ccc(C3=NN(c4ccc(Cl)cc4)C(c4ccc(Cl)cc4)C3)cc2)n1 (configuration not stated): no (0)
- C=C(C)[C@@H]1CC[C@]2(C(=O)O)CC[C@]3(C)[C@H](CC[C@@H]4[C@@]5(C)C[C@@H](CC#Cc6ccc(Cl)cc6)C(=O)C(C)(C)[C@@H]5CC[C@]43C)[C@@H]12: no (0)
- Nc1ccccc1NC(=O)c1ccc(CSc2nc(N3CCOCC3)c3cccn3n2)cc1: no (0)
- OCCNc1nc(NCCO)nc(Nc2ccc(C3=NN(c4cc(Cl)cc(Cl)c4)C(c4ccc(C(F)(F)F)cc4)C3)cc2)n1 (configuration not stated): no (0)
- O=C1NN(c2ccccc2)C(c2ccc(Cl)cc2)N2CCC[C@H]12 (some centres not stated): yes (1)
- Cc1cccc(C)c1Nc1nnc(-c2ccc(F)cc2)o1: yes (1)
- COc1cccc(NC(=O)Nc2ccc(Oc3ncnc4[nH]c(C)c(C)c34)cc2)c1: no (0)
- Nc1c(C(=O)Nc2ccccn2)sc2nc3c(cc12)CCCCCC3: no (0)
- O=C(CN1N=C(c2ccc(F)cc2)CCC1=O)Nc1nccs1: yes (1)
- O=C1CCC23OC(c4ccccc4N12)C(O)C(O)C3O (configuration not stated): yes (1)

# input Does `CC[C@]12C=CCN3CC[C@@]4(c5cc(NC(=O)CCC(=O)O[C@H]6CC[C@H]7[C@@H]8CC[C@H]9CC(=O)CC[C@]9(C)[C@H]8CC[C@]67C)c(OC)cc5N(C)[C@H]4[C@@](O)(C(=O)OC)[C@@H]1OC(C)=O)[C@@H]32` have a reported growth of at least 80%?
# output no (0)

# input Does O=C1CCC23OC(C(O)c4ccccc4N12)C1C(Br)=NOC13 (configuration not stated) have a reported growth of at least 80%?
# output yes (1)

###

Test system: HOP-62 NSCLC
Test: NCI-60 one-dose screen, 48 h
Settings: 10 µM unless noted
About 83,000 compounds went through this panel and 20% of them were active in at least one assay; those are over-represented in the sample as a whole. The source made the active and inactive calls. The calls were made as follows: active = growth percent below 10; inactive = the rest.
Select the correct class. Options are active, inactive and nothing else.

Study these solved cases before continuing.
- O=C(/C(=C/c1ccc([N+](=O)[O-])cc1)SCc1ccccc1)c1ccc(Cl)cc1: inactive
- COc1cc(/C=N/Nc2nc(-c3ccc(F)cc3)c(C#N)c(N3CCOCC3)n2)ccc1O: inactive
- COc1cc([C@H](C)c2ccc3ccccc3c2)cc(OC)c1OC: inactive
- CNc1cccc2c1C(=O)c1cccc(N)c1C2=O: inactive
- COc1ccccc1N1CCN(CCCOc2ccc(C(=O)/C=C3/C(=O)Nc4ccccc43)cc2)CC1: inactive
- O=C(CN1N=C(c2ccc(F)cc2)CCC1=O)Nc1nccs1: inactive

# input # fetch the recorded call for `COc1ccc(NC(=O)c2sc3nc(C)c(C(C)=O)cc3c2N)cc1` here
# output inactive

# input # fetch the recorded call for `O=C1c2ccccc2C(=O)c2c1oc1c2c(=O)[nH]c2ccccc21` here
# output inactive

# input # fetch the recorded call for `C=C1C(=O)O[C@H]2[C@H]1CC/C(COC(=O)NCC(=O)Nc1ccc(OC)c(C(N)=O)c1O)=C\CC[C@@]1(C)O[C@@H]21` here
# output inactive

# input # fetch the recorded call for `Nc1n[nH]c2cccc(C#Cc3cccc(NC(=O)c4cc(N5CCOCC5)cc(C(F)(F)F)c4)c3)c12` here
# output inactive

# input # fetch the recorded call for `COc1ccc2oc(=O)cc(-c3c(C#N)c(N)n4nc(N)c(C#N)c4c3C#N)c2c1` here
# output inactive
